Origin of measurements: ChEMBL document CHEMBL3400108

Target: Tyrosine-protein phosphatase non-receptor type 11 (Homo sapiens) (UniProt Q06124)
Sequence (whole entry): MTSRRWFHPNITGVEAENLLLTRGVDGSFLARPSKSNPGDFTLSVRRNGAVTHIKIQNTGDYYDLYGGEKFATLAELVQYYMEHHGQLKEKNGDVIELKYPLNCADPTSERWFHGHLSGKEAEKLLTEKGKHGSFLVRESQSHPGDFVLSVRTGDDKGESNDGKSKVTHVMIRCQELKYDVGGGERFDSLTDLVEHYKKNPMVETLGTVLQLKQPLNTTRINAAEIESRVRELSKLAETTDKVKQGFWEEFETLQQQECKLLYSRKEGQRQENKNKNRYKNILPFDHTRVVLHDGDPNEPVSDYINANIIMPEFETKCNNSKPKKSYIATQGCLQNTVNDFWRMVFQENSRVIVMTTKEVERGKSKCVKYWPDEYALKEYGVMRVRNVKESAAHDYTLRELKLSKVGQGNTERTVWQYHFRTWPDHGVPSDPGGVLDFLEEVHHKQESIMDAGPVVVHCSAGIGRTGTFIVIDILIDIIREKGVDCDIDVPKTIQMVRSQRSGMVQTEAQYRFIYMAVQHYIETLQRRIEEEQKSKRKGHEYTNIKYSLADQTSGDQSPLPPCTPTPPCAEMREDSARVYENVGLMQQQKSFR
Assay: Inhibition of SHP2 (unknown origin) at 100 uM
Non-standard residues stand in square brackets, D forms with d. Residues, ends and D or L forms follow the SMILES beside them. Groups on a side chain read outwards from the residue. *: point of attachment. Phe(4-F) = N[C@@H](Cc1ccc(F)cc1)C(=O)O; 2Nal = N[C@@H](Cc1ccc2ccccc2c1)C(=O)O; NEt2 = CCN(CC)*
endpoint_label: inhibition (%)

* CCN(CC)C(=O)[C@H](Cc1ccc(F)cc1)NC(=O)[C@H](CC(C)C)NC(=O)[C@@H](NC(=O)[C@@H](N)COC(=O)[C@H](CC(C)C)NC(C)=O)C(C)C (H-S([Leu-Ac])VL[Phe(4-F)]-NEt2) | 97
* CCN(CC)C(=O)[C@H](Cc1ccc(OC)cc1)NC(=O)[C@H](CC(C)C)NC(=O)[C@@H](NC(=O)[C@@H](N)COC(=O)[C@@H]1CCCN1C(C)=O)C(C)C (H-S([Pro-Ac])VLY(Me)-NEt2) | 87
* CCN(CC)C(=O)[C@H](Cc1ccccc1)NC(=O)[C@H](CC(C)C)NC(=O)[C@@H](NC(=O)[C@@H](N)COC(=O)[C@H](CC(C)C)NC(C)=O)C(C)C (H-S([Leu-Ac])VLF-NEt2) | 94
* CCN(CC)C(=O)[C@H](Cc1ccc(F)cc1)NC(=O)[C@H](CC(C)C)NC(=O)[C@@H](NC(=O)[C@@H](N)COC(=O)[C@@H]1CCCN1C(C)=O)C(C)C (H-S([Pro-Ac])VL[Phe(4-F)]-NEt2) | 95
* CCN(CC)C(=O)[C@H](Cc1ccc2ccccc2c1)NC(=O)[C@H](CC(C)C)NC(=O)[C@@H](NC(=O)[C@@H](N)COC(=O)[C@@H]1CCCN1C(C)=O)C(C)C (H-S([Pro-Ac])VL[2Nal]-NEt2) | 94
